Value source: patent US20250011363A1

Target: acetylcholine receptor
Experiment: SPR, AchR immobilised on CM5 chip, peptide at 10 uM
Property: Binding affinity (RU)

These recorded examples may help you get a feel for the data.
Exercise: Determine its reported Binding affinity (RU): KMHFK [5mer-868]
Key: 18

Exercise: Item RRRQQK [6mer-1-447] : provide Binding affinity (RU)
Key: 146

Exercise: // Input: RRGYTR [6mer-1-461] . Output its Binding affinity (RU) only.
Key: 142

Exercise: Quickly give me recorded Binding affinity (RU) for KKLFYK [6mer-1-436]
Key: 148

Exercise: Look up and state reported Binding affinity (RU) for RCDKK [5mer-880]
Key: 17

I: RKLIYR [6mer-1-416]
II: KDSWK [5mer-867]
III: RDAPR [5mer-1153]
Exercise: Please give the order of these binders when sorted by Binding affinity (RU), largest value leading. // rank by listing labels in the order requested
Key: I, III, II
